study.target: recombinant full-length PfCSP (Plasmodium falciparum circumsporozoite protein, strain NF54) (Plasmodium falciparum NF54, UniProt P19597)
Sequence (P19597 20-375): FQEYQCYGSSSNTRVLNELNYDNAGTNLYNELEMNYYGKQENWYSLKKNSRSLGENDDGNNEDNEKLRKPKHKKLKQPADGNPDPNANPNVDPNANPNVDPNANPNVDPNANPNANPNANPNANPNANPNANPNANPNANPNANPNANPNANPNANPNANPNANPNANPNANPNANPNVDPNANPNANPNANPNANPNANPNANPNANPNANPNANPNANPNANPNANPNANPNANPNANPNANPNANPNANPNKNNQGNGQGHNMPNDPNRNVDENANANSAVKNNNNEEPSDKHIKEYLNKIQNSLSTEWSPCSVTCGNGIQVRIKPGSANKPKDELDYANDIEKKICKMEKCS
endpoint: binding result

binder CL-513691 (antibody, V domains shown) VH: QVQLVESGGDVVQTGRSLRLSCAASGFTFSNYGMHWVRQAPDKGLEWVAIIWYDGSNKFYADSVKGRFTISRDNSKNTLYLHIHSLRAEDTAVYYCARDDRGDSAGPYFVYWGQGTLVTVSS VL: EIVMTQSPATLSVSPGERATLSCRASQSVSDNLAWYQQRPGQAPRLLIYGASIRATGIPARFGGSGSGTEFTLTISILQSADFAVYYCQQHDSWPWTFGQGTKVEIK , binding result observed: binds

binding result in this record for CL-512206 (antibody, V domains shown) VH: QVQLVESGGGVVQPGRSLRLSCAASGFTFSHYGMHWVRQAPGKGLEWVAVIWYDGNNKFYADSVKGRFTISRDNSNNTLYLQMNSLRAEDTAVYHCVRERTGATSRGFDFWGQGTLVTVSS VL: QSVLTQPPSVSAAPGQKVTISCSGSDSNIEKYYVSWYQQLPGSAPKLLIYDNNKRPSGIPDRFSGSKSGTSATLGITGLQTGDEAVYYCGTWDSSLSTGVFGGGTKLTVL : binds

Noted for CL-444469 (antibody, V domains shown) VH: QVQLVESGGGVVQPGRSLRVSCEVSGLTFSNYGMHWVRQAPGKRLEWVAIIWYDGSNKYYADSVKGRFTISRDNSKNTLYLQMNSLRAEDTAVYYCARSYGSGSRGDYYGMDVWGQGTTVTVSS VL: DIQMTQSPSTLSASVGDRVTITCRASQSISSWLAWFQQKPGKAPKLLIYKASSLESGVPSRFSGSGSGTEFTLTISSLQPDDFATYYCQQYYSYWTFGQGTKVEIK : its binding result reads binds
